Recorded values, source patent US20260109712A1.

assay: Mouse pharmacokinetics studies; assay type: in vivo, CD-1 mice; conditions: female, CD-1, mouse, in vivo, 10 mg/kg
ENDPOINT_LABEL: clearance (mL/min/kg)
Report the value in mL/min/kg with no unit label.

Need clearance of CO[C@H]1/C=C/O[C@@]2(C)Oc3c(C)c(O)c4c(c3C2=O)C2=NC3(CCN(CC(C)C)CC3)NC2=C(NC(=O)/C(C)=C\C=C\[C@H](C)[C@H](O)[C@@H](C)[C@@H](O)[C@@H](C)[C@H](OC(C)=O)[C@@H]1C)C4=O [rifabutin, reference compound] , thanks. 10.3

====

Each entry below lists one item and its recorded ƒu value.
experiment: Plasma protein binding assay (rapid equilibrium dialysis); type: in vitro ADME
Param answer (str): number followed by unit.

Would you please look over these solved cases?
{"columns": ["MOL_SMILES", "ENDPOINT_LABEL", "RECORDED_RESULT"],
 "data": [
  ["CO[C@H]1/C=C/O[C@@]2(C)Oc3c(C)c(O)c4c(c3C2=O)C2=NC3(CCN(CC(C)C)CC3)NC2=C(NC(=O)/C(C)=C/C=C/[C@H](C)[C@H](O)[C@@H](C)[C@@H](O)[C@@H](C)[C@H](OC(=O)c2ccccn2)[C@@H]1C)C4=O", "ƒu", "3.0%"],
  ["CO[C@H]1/C=C/O[C@@]2(C)Oc3c(C)c(O)c4c(c3C2=O)C2=NC3(CCN(CC(C)C)CC3)NC2=C(NC(=O)/C(C)=C/C=C/[C@H](C)[C@H](O)[C@@H](C)[C@@H](O)[C@@H](C)[C@H](OC(=O)Nc2ccncc2)[C@@H]1C)C4=O", "ƒu", "2.0%"],
  ["CO[C@H]1/C=C/O[C@@]2(C)Oc3c(C)c(O)c4c(c3C2=O)C2=NC3(CCN(CC(C)C)CC3)NC2=C(NC(=O)/C(C)=C/C=C/[C@H](C)[C@H](O)[C@@H](C)[C@@H](O)[C@@H](C)[C@H](OC(=O)c2ccc(Cl)cc2)[C@@H]1C)C4=O", "ƒu", "0.01%"],
  ["CO[C@H]1/C=C/O[C@@]2(C)Oc3c(C)c(O)c4c(c3C2=O)C2=NC3(CCN(CC(C)C)CC3)NC2=C(NC(=O)/C(C)=C/C=C/[C@H](C)[C@H](O)[C@@H](C)[C@@H](O)[C@@H](C)[C@H](OC(=O)c2cscn2)[C@@H]1C)C4=O", "ƒu", "2.9%"],
  ["CO[C@H]1/C=C/O[C@@]2(C)Oc3c(C)c(O)c4c(c3C2=O)C2=NC3(CCN(CC(C)C)CC3)NC2=C(NC(=O)/C(C)=C/C=C/[C@H](C)[C@H](O)[C@@H](C)[C@@H](O)[C@@H](C)[C@H](OC(=O)NC2CCN(Cc3ccccc3)CC2)[C@@H]1C)C4=O", "ƒu", "0.2%"]
]}

Need ƒu of `CO[C@H]1/C=C/O[C@@]2(C)Oc3c(C)c(O)c4c(c3C2=O)C2=NC3(CCN(CC(C)C)CC3)NC2=C(NC(=O)/C(C)=C/C=C/[C@H](C)[C@H](O)[C@@H](C)[C@@H](O)[C@@H](C)[C@H](OC(=O)c2cccc(C(F)(F)F)c2)[C@@H]1C)C4=O` , thanks. 0%

Need ƒu of `COc1cccc(C(=O)O[C@H]2[C@H](C)[C@H](O)[C@H](C)[C@@H](O)[C@@H](C)/C=C/C=C(\C)C(=O)NC3=C4NC5(CCN(CC(C)C)CC5)N=C4c4c(c(O)c(C)c5c4C(=O)[C@@](C)(O/C=C/[C@H](OC)[C@H]2C)O5)C3=O)c1` , thanks. 0.02%
